Collected CC50 at 7 days values appear next to each entry.
# test protocol: In vitro cytotoxicity assay (MTT cell viability) in HepG2 cells
# Assay type: cell-based, human
# condition notes: human
readout: CC50 at 7 days

>>> print(df.to_string())
                         chemical_structure  recorded_value
0  Cc1c(C(=O)Nc2ccc(F)c(C#N)c2)c(C)n(C)c1C(=O)C(=O)NC(C)(C)C         > 30 µM
1  Cc1c(C(=O)Nc2ccc(F)c(C#N)c2)c(C)n(C)c1C(=O)C(=O)Nc1ccc(B(O)O)cc1         > 30 µM
2  Cc1cc(NC(=O)c2c(C)c(C(=O)C(=O)N[C@H]3CCCC(F)(F)[C@@H]3O)n(C)c2C)ccc1F         > 30 µM
3  CCc1c(C(=O)Nc2ccc(F)c(C)c2)c(C)n(C)c1C(=O)C(=O)N[C@H](C)C(F)(F)F      5 to 30 µM
4  Cc1cc(NC(=O)c2c(C)c(C(=O)C(=O)N[C@]3(C)CC[C@H](O)CC3)n(C)c2-c2ccsc2)ccc1F         > 30 µM
5  Cc1c(C(=O)Nc2cccc(S(N)(=O)=O)c2)c(C)n(C)c1C(=O)C(=O)NC(C)(C)C         > 30 µM
6  Cc1cc(NC(=O)c2c(C)c(C(=O)C(=O)N[C@]3(C)C[C@H](O)C3)n(C)c2C2CC2)ccc1F         > 30 µM

###

# test protocol: In vitro cytotoxicity assay (MTT cell viability) in HepG2 cells
# Type: cell-based, human
# condition notes: human
readout: CC50 at 7 days

>>> df
                                    compound         readout  recorded_value
 0  CCOC(=O)CO[C@H]1CC[C@@H](NC(=O)C(=O)c2c(C)c(C(=O)Nc3ccc(F)c(C)c3)c(C)n2C)CC1 [Example 26]  CC50 at 7 days         > 30 µM
 1  Cc1c(C(=O)Nc2cc(Cl)nc(Cl)c2)c(C)n(C)c1C(=O)C(=O)N[C@H](C)C(F)(F)F [Example 51]  CC50 at 7 days         > 30 µM
 2  Cc1cc(NC(=O)c2c(C)c(C(=O)C(=O)N[C@H]3CC[C@@H](S(C)(=O)=O)CC3)n(C)c2CC2CC2)ccc1F [Example 124]  CC50 at 7 days         > 30 µM
 3  CC[C@]1(NC(=O)C(=O)c2c(C)c(C(=O)Nc3ccc(F)c(C)c3)c(C)n2C)CC[C@@H](O)CC1 [Example 5]  CC50 at 7 days         > 30 µM
 4  Cc1c(C(=O)NC23CCC(O)(CC2)CC3)c(C)n(C)c1C(=O)C(=O)Nc1cccnc1 [Example 29]  CC50 at 7 days         > 30 µM
 5  Cc1c(C(=O)Nc2ccc(F)c(S(C)(=O)=O)c2)c(C)n(C)c1C(=O)C(=O)NC(C)(C)C [Example 69]  CC50 at 7 days         > 30 µM
 6  Cc1cc(NC(=O)c2c(C)c(C(=O)C(=O)NC3(CC(=O)O)CCCNC3)n(C)c2C)ccc1F (centres unmarked) [Example 146]  CC50 at 7 days         > 30 µM
 7  Cc1c(C(=O)Nc2ccc(F)c(F)c2)c2n(c1C(=O)C(=O)NC1(C)CCN(C(=O)Nc3ccc(F)c(F)c3)CC1)CCCC2 [Example 33]  CC50 at 7 days  0.5 to 4.99 µM
 8  CC[C@]1(NC(=O)C(=O)c2c(C)c(C(=O)Nc3ccc(F)c(C)c3)c(C)n2C)CC[C@H](O)CC1 [Example 4]  CC50 at 7 days         > 30 µM
 9  Cc1cc(NC(=O)c2c(C)c(C(=O)C(=O)N[C@H]3CC[C@@H](S(C)(=O)=O)CC3)n(C)c2-c2ccccn2)ccc1F [Example 156]  CC50 at 7 days         > 30 µM
10  Cc1cc(NC(=O)c2c(C)c(C(=O)C(=O)N[C@@H]3CC[C@@H](O)CC3(C)C)n(C)c2C)ccc1F (single isomer, unassigned) [Example 143]  CC50 at 7 days         > 30 µM
11  Cc1cc(NC(=O)c2c(C)c(C(=O)C(=O)N[C@H]3CC[C@@H](O)CC3)n(C)c2C2CCCCC2)ccc1F [Example 119]  CC50 at 7 days      5 to 30 µM
12  Cc1cc(NC(=O)c2c(C)c(C(=O)C(=O)N[C@H]3CC[C@@H](O)CC3)n(C)c2CC2CC2)ccc1F [Example 126]  CC50 at 7 days         > 30 µM
13  Cc1cc(NC(=O)c2c(C)c(C(=O)C(=O)N[C@H]3CC[C@@H](O)CC3)n(C)c2-c2ccsc2)ccc1F [Example 184]  CC50 at 7 days      5 to 30 µM
